These data points were gathered from patent US20210388087A1.

# reported fold change of affinity; entries follow
target.or.test.system: T1, Human CD137 ECD (human)
T1 construct: entry includes C-terminal His-tag and biotin acceptor peptide; also called human CD137 extracellular domain; 4-1BB
T1 sequence (chain, as listed by the source limits assumed): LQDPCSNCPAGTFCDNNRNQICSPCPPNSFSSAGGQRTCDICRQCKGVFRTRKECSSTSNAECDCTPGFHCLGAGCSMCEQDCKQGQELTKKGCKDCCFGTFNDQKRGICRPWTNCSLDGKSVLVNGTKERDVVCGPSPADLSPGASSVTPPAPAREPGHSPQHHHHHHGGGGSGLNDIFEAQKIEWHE
assay.remarks: Biacore SPR, vs parent H183/L072
Return type: number; implicit unit fold.

Solved entries (count: 2):
[
  {
    "binder": "H183/L072 VL T31S (antibody, name in Kabat numbering, V domains shown, Dual-Ig) VH: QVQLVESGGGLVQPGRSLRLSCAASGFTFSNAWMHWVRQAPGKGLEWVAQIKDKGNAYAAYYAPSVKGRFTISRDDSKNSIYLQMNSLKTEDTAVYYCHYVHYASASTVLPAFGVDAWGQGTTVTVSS VL: DIVMTQSPLSLPVTPGEPASISCQASQELVHMNRNSYLHWYQQKPGQAPRLLIYKVSNRFPGVPDRFSGSGSGTDFTLKISRVEAEDVGVYYCAQGTSVPFTFGQGTKLEIK",
    "fold change of affinity, fold": 0.4
  },
  {
    "binder": "H183/L072 VL L27bT (antibody, name in Kabat numbering, V domains shown, Dual-Ig) VH: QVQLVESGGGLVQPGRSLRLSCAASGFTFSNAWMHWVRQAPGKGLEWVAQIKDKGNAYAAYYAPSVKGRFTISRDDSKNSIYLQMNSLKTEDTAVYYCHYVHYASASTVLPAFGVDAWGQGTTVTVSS VL: DIVMTQSPLSLPVTPGEPASISCQASQETVHMNRNTYLHWYQQKPGQAPRLLIYKVSNRFPGVPDRFSGSGSGTDFTLKISRVEAEDVGVYYCAQGTSVPFTFGQGTKLEIK",
    "fold change of affinity, fold": 0.4
  }
]

Any idea what its fold change of affinity is? The binder is H183/L072 VL L27bM (antibody, name in Kabat numbering, V domains shown, Dual-Ig) VH: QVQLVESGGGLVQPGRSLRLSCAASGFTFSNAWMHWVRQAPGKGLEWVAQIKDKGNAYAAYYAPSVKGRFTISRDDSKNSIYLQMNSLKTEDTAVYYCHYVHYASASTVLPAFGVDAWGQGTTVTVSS VL: DIVMTQSPLSLPVTPGEPASISCQASQEMVHMNRNTYLHWYQQKPGQAPRLLIYKVSNRFPGVPDRFSGSGSGTDFTLKISRVEAEDVGVYYCAQGTSVPFTFGQGTKLEIK
0.4
